# System: Klebsiella pneumoniae
# test-method-notes: Antimicrobial activity against Klebsiella pneumoniae MTCC 3384 at 100 ug/ml after 24 hrs by agar disc diffusion method
# Assay type: functional
# protocol-conditions: MTCC 3384, 24 h, read-out: DIZ
readout-label: zone of inhibition at 100 µg/mL (mm)
Give bare numbers, in mm.

Recorded results for 4 molecules are shown here.
> print(dat)
                                   molecule  endpoint.value
1  COc1ccc(-c2nc(C3CC(c4ccc(Cl)cc4)=NN3c3ccccc3)no2)cc1OC (stereo not given)              11
2  COc1ccc(C2=NN(c3ccccc3)C(c3noc(-c4ccc(OC)c(OC)c4)n3)C2)cc1 (stereo not given)              18
3  COc1ccc(C2=NN(c3ccccc3)C(c3noc(-c4ccccc4OC)n3)C2)cc1 (stereo not given)               8
4  COc1ccc(-c2nc(C3CC(c4ccccc4)=NN3c3ccccc3)no2)cc1OC (stereo not given)              14

Shift focus to the following entry.
**Query** Fill blank: measured zone of inhibition at 100 µg/mL of the molecule Oc1ccc(C2=NN(c3ccccc3)C(c3noc(-c4ccc(O)cc4)n3)C2)cc1 (stereo not given) is ____.
**Result** 16

----------
# test-method-notes: Antioxidant activity assessed as reducing power of ferric ion at 100 ug/ml after 20 mins
# Assay type: functional
# Design: scale not given: the % may be the effect or the level left
Give measured Activity for each item. Keep answers brief.
Give bare numbers, in %.

Quick batch: Activity for everything below.
1. COc1ccc(-c2nc(C3CC(c4ccc(O)cc4)=NN3c3ccccc3)no2)cc1OC (stereo not given)
2. COc1ccccc1-c1nc(C2CC(c3ccc(Cl)cc3)=NN2c2ccccc2)no1 (stereo not given)
3. COc1ccc(C2=NN(c3ccccc3)C(/C(N)=N/O)C2)cc1 (stereo not given)

**Result**
1: 75; 2: 68; 3: 62

Could you tell me Activity for each of these compounds? They are listed below.
1. N/C(=N\O)C1CC(c2ccc(Cl)cc2)=NN1c1ccccc1 (stereo not given)
2. Clc1ccc(-c2nc(C3CC(c4ccccc4)=NN3c3ccccc3)no2)cc1 (stereo not given)

**Result**
1. 68
2. 65

----------
Consider the following compounds; for each one, report its zone of inhibition at 100 µg/mL.
# Tested on: Klebsiella pneumoniae
# test-method-notes: Antimicrobial activity against Klebsiella pneumoniae MTCC 3384 at 100 ug/ml after 24 hrs by agar disc diffusion method
# Format: functional
# protocol-conditions: MTCC 3384, 24 h, read-out: DIZ
Give bare numbers, in mm.

> print(dat)
                                   compound  endpoint.value
1  COc1ccc(C2=NN(c3ccccc3)C(c3noc(-c4ccc(Cl)cc4)n3)C2)cc1 (stereo not drawn)              10
2  Oc1ccc(C2=NN(c3ccccc3)C(c3noc(-c4ccc(Cl)cc4)n3)C2)cc1 (stereo not drawn)              12

Next compound, zone of inhibition at 100 µg/mL to be filled in.
**Query** # zone of inhibition at 100 µg/mL lookup, item N/C(=N\O)C1CC(c2ccccc2)=NN1c1ccccc1 (stereo not drawn)
**Result** 8

----------
# Test system: Bacillus cereus
# test-method-notes: Antimicrobial activity against Bacillus cereus MTCC 8372 at 100 ug/ml after 24 hrs by agar disc diffusion method
# Format: functional
# protocol-conditions: MTCC 8372, 24 h, read-out: DIZ
For each record, write down the corresponding zone of inhibition at 100 µg/mL.
Give bare numbers, in mm.

> print(dat)
                                   compound                    readout.label  unit.label  endpoint.value
1  Clc1ccc(-c2nc(C3CC(c4ccccc4)=NN3c3ccccc3)no2)cc1 (centres undefined)  zone of inhibition at 100 µg/mL          mm              10
2  COc1ccccc1-c1nc(C2CC(c3ccccc3)=NN2c2ccccc2)no1 (centres undefined)  zone of inhibition at 100 µg/mL          mm               8
3  COc1ccc(-c2nc(C3CC(c4ccc(Cl)cc4)=NN3c3ccccc3)no2)cc1OC (centres undefined)  zone of inhibition at 100 µg/mL          mm              14

**Query** zone of inhibition at 100 µg/mL for COc1cc(-c2nc(C3CC(c4ccc(O)cc4)=NN3c3ccccc3)no2)cc(OC)c1OC (centres undefined) ?
**Result** 18

Reference source: ChEMBL document CHEMBL2406981
